# protocol details: In vivo pharmacokinetics study
# conditions: male, ICR, mouse, plasma; mice, iv 2 mg/kg; read-out: iv CL
test readout: clearance (mL/min/kg)
Your answer should be a plain number; it is taken to be in mL/min/kg.

For the compound shown here, CN(C)Cc1cccc(-c2c(-c3cnn(C)c3)oc3ncnc(Oc4ccc(NC(=O)c5cccn(-c6ccc(F)cc6)c5=O)cc4)c23)c1 [Compound 33] , give the reported clearance.
12.6

----------
Some compounds, each annotated with its measured half-life at 24 h.
# protocol details: In vivo pharmacokinetics study
# conditions: male, ICR, mouse, plasma; mice, iv 2 mg/kg; read-out: iv T1/2 (converted)
Report as a plain number; the unit h is understood.

Look over these answered cases.
Requested field: half-life at 24 h. Item: Cn1cc(-c2oc3ncnc(Oc4ccc(NC(=O)c5cccn(-c6ccc(F)cc6)c5=O)cc4)c3c2-c2cccc(N3CCNCC3)c2)cn1 [Compound 34]
6.7

Can you look up the measured half-life at 24 h of CC(=O)Nc1cccc(-c2c(-c3cnn(C)c3)oc3ncnc(Oc4ccc(NC(=O)c5cccn(-c6ccc(F)cc6)c5=O)cc4)c23)c1 [Compound 28] for me?
12.7

Next:
Which half-life at 24 h value is on record for Cn1cc(-c2oc3ncnc(Oc4ccc(NC(=O)c5cccn(-c6ccc(F)cc6)c5=O)cc4)c3c2-c2cccc(CN)c2)cn1 [Compound 31] ?
6.3
